- tgt: Sut1 (UniProt P53032)
- Sequence: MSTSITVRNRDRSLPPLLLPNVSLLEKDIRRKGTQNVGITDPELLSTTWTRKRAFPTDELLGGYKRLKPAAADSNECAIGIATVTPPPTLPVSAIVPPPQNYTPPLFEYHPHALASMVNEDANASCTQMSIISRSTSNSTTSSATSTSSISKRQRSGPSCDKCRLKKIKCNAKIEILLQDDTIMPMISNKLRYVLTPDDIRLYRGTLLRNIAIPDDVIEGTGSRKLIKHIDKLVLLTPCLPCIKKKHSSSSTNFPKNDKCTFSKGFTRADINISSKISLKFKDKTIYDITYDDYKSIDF
- test.method.notes: PBM E-score (8-mer binding enrichment) (E-score (-0.5 to 0.5)); higher = stronger / more preferred TF binding
- condition.description: protein concentration: 200 nM; construct: GST-full length
The full ranking holds about 33,000 sequences; the median of “E-score (-0.5 to 0.5)” is about -0.017, and the highest 2% start at about 0.3. Only a selection was taken, and the highest values are over-represented in it overall.
measurement.type: PBM E-score

[[record]]
sequence_string = "ATCATACG"
data_value = 0.157

[[record]]
sequence_string = "AGAAATTA"
data_value = 0.335

[[record]]
sequence_string = "AACAAATG"
data_value = 0.159


====

- tgt: Sut1 (UniProt P53032)
- Sequence: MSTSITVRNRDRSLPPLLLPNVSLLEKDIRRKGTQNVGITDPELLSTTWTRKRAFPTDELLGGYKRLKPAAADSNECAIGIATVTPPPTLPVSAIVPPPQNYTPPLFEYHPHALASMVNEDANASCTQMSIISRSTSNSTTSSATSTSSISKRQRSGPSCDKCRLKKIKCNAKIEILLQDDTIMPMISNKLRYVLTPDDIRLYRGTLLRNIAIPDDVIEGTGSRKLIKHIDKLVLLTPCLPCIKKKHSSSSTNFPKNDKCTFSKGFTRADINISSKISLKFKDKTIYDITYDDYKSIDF
- test.method.notes: PBM E-score (8-mer binding enrichment) (E-score (-0.5 to 0.5)); higher = stronger / more preferred TF binding
- condition.description: protein concentration: 200 nM; construct: GST-full length
Whole data set: some 33,000 sequences, median “E-score (-0.5 to 0.5)” near -0.017, cut for the highest 2% near 0.3. This is one part of a sample in which the highest values are shown more often than they occur.
Response field class: string, computed from recorded PBM E-score by ranges group A (below 0.04), group B (0.04 to below 0.2), group C (0.2 or more)

[[record]]
sequence_string = "AGACGGAA"
category_label = "group B"

[[record]]
sequence_string = "CCCAAGGC"
category_label = "group A"

[[record]]
sequence_string = "ATATATAA"
category_label = "group C"

[[record]]
sequence_string = "GGACGGAC"
category_label = "group C"

[[record]]
sequence_string = "CCACGGAG"
category_label = "group C"

[[record]]
sequence_string = "AGACGGAT"
category_label = "group B"

[[record]]
sequence_string = "GCGTCTAA"
category_label = "group A"

[[record]]
sequence_string = "ACACGGAA"
category_label = "group B"

[[record]]
sequence_string = "ACACGGAT"
category_label = "group A"

[[record]]
sequence_string = "TGTTATAA"
category_label = "group C"

[[record]]
sequence_string = "CAAACTCC"
category_label = "group C"

[[record]]
sequence_string = "CAGCTTGG"
category_label = "group A"

[[record]]
sequence_string = "GTGGGGAA"
category_label = "group A"

[[record]]
sequence_string = "AAAACTCT"
category_label = "group B"

